Tested on: NCI-H460 lung
Assay: NCI-60 one-dose screen, 48 h
Details: 10 µM unless noted
This is part of a sample that, as a whole, favours compounds with a hit. Of some 83,000 tested, about 20% had one in any assay. The source made the active and inactive calls. How the source made its calls: active means growth percent below 10; inactive means the rest.
Form entry, call: pick from TRUE = active, FALSE = inactive

Solved entries:
CS(=O)(=O)Nc1cc(-c2ccc3ncnc(Nc4cccc(Cl)c4F)c3c2)cnc1Cl	FALSE
O=c1c2cccc(F)c2sc2c(NCCCNCCO)nc3ccccc3c12	TRUE
C=CCNc1ccc2c3c(cccc13)C(=O)N(N1C(=O)c3cccc4cccc(c34)C1=O)C2=O	FALSE
O=c1c2cc(F)ccc2sc2c(NCCN3CCOCC3)nc3ccccc3c12	FALSE
COc1ccc(NC(=O)n2nc(/C=C\c3ccc(O)c(OC)c3)cc2/C=C\c2ccc(O)c(OC)c2)cc1	FALSE

Exercise: Dear colleague, could you share the recorded outcome for COc1ccc(CNC(=O)C(=O)[C@H](Cc2ccccc2)NC(=O)c2[nH]c3ccccc3c(=O)c2C)cc1 when you have a moment?
Key: FALSE

Exercise: Dear colleague, could you share the recorded outcome for Cc1ccc(S(=O)(=O)N/N=C/C2(c3ccccc3)CC2)cc1 when you have a moment?
Key: FALSE

Exercise: Dear colleague, could you share the recorded outcome for CC(C)(C)NC(=O)C(OC(=O)c1cccc(Cl)c1)c1ccc(Cl)cc1 (configuration not stated) when you have a moment?
Key: FALSE

Exercise: Dear colleague, could you share the recorded outcome for CC(=O)OC[C@H]1OC(Sc2sc(C(=O)c3ccc(Cl)cc3)c(N)c2-c2nc3ccccc3s2)[C@H](OC(C)=O)[C@@H](OC(C)=O)[C@@H]1OC(C)=O (some centres not stated) when you have a moment?
Key: FALSE

---

System: EKVX NSCLC
Assay: NCI-60 one-dose screen, 48 h (100 = growth as untreated, 0 = no growth, -100 = all killed)
Details: 10 µM unless noted
This is part of a sample that, as a whole, favours compounds with a hit. Of some 83,000 tested, about 20% had one in any assay.
measurement.kind: growth (%)
Answers are plain numbers, in %.

CCOc1ccc2nc(SCc3nc4n(n3)S(=O)(=O)c3ccccc3N4C)sc2c1	14
NS(=O)(=O)c1ccc(N=Nc2ccc(-c3nn4cc(-c5ccccc5)nc4s3)cc2)cc1	96.7
COC(=O)Nc1ccc(-c2nc(-c3cccc(OC)c3)c(-c3ccnc(Br)c3)[nH]2)cc1	55.5

Required: growth, one value per molecule below.
1. Cc1ccc2sc3c(NCCN)nc4ccccc4c3c(=O)c2c1
2. Nc1nc2ccccc2c2c(=O)c3cc(F)ccc3sc12
3. NCCCNc1nc2ccc(Cl)cc2c2c(=O)c3cc(F)ccc3sc12
4. Cc1nc2nc(SCC(=O)O)[nH]c2c(=O)[nH]1
5. Cc1ccc(C(=O)N/N=C/c2cccc([N+](=O)[O-])c2)cn1
6. COc1ccc(C(=O)/C=C/c2sc(Cl)nc2Cl)cc1
7. Cc1nc2cnc(N)c(C#Cc3cncc(C(=O)Nc4ccc(CN5CCN(C)CC5)c(C(F)(F)F)c4)c3)c2nc1C

Key:
1: 88; 2: 91.5; 3: 81.3; 4: 108; 5: 104; 6: 65.2; 7: 7.92

---

Assignment: determine reported growth for the given compounds.
Test system: EKVX NSCLC
Assay: NCI-60 one-dose screen, 48 h (100 = growth as untreated, 0 = no growth, -100 = all killed)
Conditions: 10 µM unless noted
The panel holds about 83,000 compounds, 20% with a hit somewhere; the sample as a whole holds those more often.
Numbers only, in %.

COc1ccc(/C=C2\Oc3cc(OCCN4CCC(Cc5ccccc5)CC4)ccc3C2=O)cc1OC	70.4
N#CC1=C(N)Oc2c(sc3c(Br)cccc23)C1c1ccc([N+](=O)[O-])cc1 (stereo not given)	58.9
CCC12CCC[N+]3([O-])CCC4(C(=Nc5ccccc54)C(O)(C(=O)OC)C1)C23 (stereo not given)	101
COc1ccc(-n2c(N)c(-c3nc4ccccc4[nH]3)cc(C#N)c2=O)cc1	79.1

Read the next record carefully.
Exercise: Request the reported growth associated with c1ccc2cc(C[n+]3ccn(CCCCCCn4cc[n+](Cc5ccc6ccccc6c5)c4)c3)ccc2c1
Key: 37.3
